Reference source for all entries: patent US20120238493A1

Target: glucagon receptor (UniProt P47871 26-477, limits assumed)
Sequence (P47871 26-477 limits assumed): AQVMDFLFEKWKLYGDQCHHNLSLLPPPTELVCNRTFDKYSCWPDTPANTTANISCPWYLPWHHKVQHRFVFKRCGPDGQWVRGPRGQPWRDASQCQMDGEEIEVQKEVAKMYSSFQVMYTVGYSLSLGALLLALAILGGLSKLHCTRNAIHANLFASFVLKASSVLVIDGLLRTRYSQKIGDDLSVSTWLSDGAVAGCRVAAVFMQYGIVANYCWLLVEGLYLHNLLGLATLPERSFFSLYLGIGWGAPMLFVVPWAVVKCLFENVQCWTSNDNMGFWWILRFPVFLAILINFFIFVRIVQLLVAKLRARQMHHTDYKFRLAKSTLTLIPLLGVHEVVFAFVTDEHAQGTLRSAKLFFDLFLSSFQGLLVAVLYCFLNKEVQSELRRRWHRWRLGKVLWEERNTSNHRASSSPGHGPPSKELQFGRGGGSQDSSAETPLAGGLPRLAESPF
Assay: cell-based or functional assay
*1 amine or outer side, *2 acyl side, *3 side chain or, on linkers, in order; H or OH if unused. Where no end group is shown, it is not given here. Side-chain parts run from the residue outwards. [ ]: non-standard residue; d: D form. The star is where a group is joined. Palmitoyl = CCCCCCCCCCCCCCCC(=O)*; Suc = O=C(CCC(=O)[*:2])[*:1]; Aib = CC(C)(N)C(=O)O
readout-type: EC50 (cAMP reporter) (nM)
# value in nM; strip the unit string

Y[Aib]EGTFTSDYSIYLDKQAA[Aib]EFVNWLLAGGPSSGAPPPSK([Suc-C18])G-NH2 [peptide of SEQ ID NO: 142] | 0.121

We now examine a further binder.
Lookup: Any idea what its EC50 (cAMP reporter) is? The binder is Y[Aib]EGTFTSDYSIYLDKQAA[Aib]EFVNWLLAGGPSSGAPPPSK(Palmitoyl)G-NH2 [peptide of SEQ ID NO: 139]
Found: 0.203
